test_target: D(3) dopamine receptor (Homo sapiens)
Sequence (P35462 whole entry): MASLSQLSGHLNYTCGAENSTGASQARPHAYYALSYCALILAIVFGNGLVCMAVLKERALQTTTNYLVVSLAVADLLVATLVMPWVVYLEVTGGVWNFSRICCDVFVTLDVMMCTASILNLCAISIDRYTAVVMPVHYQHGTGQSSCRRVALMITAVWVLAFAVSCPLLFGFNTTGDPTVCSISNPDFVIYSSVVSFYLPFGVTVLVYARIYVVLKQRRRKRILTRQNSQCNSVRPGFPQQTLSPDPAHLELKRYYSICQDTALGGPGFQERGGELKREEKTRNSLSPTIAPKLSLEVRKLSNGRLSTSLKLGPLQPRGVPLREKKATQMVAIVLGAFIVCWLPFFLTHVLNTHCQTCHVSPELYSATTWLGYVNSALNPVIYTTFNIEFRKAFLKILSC
pIC50: −log10 of the molar value.
observable: pIC50

// returns reported pIC50 for input `O=[N+]([O-])c1cc(O)c2c(c1)S(=O)(=O)N=C(Nc1ccccc1Oc1ccccc1)N2`
< 5.49

====

Exercise: for every item that follows, state its recorded IC50.
test_target: C-X-C chemokine receptor type 2 (Homo sapiens)
test_description: Antagonist activity at CXCR2 receptor expressed in CHOK1 cells assessed as human IL8-induced calcium mobilization by FLIPR
Type: functional, cell-based, CHO-K1
// units = nM; emit number, no label

// returns reported IC50 for input `O=[N+]([O-])c1cc(O)c2c(c1)S(=O)(=O)N=C(Nc1ccccc1Oc1ccccc1)N2`
490

// returns reported IC50 for input `O=S1(=O)N=C(Nc2ccccc2Cl)Nc2c(O)cc(Cl)cc21`
520

// returns reported IC50 for input `O=S1(=O)N=C(Nc2ccccc2Oc2ccccc2)Nc2c(O)cc(Cl)cc21`
320

// returns reported IC50 for input `O=S1(=O)NC(Nc2cccc(F)c2Cl)=Nc2c(O)cc(Cl)cc21`
460

// returns reported IC50 for input `O=[N+]([O-])c1cc(O)c2c(c1)S(=O)(=O)N=C(Nc1ccccc1Br)N2`
600

// returns reported IC50 for input `O=[N+]([O-])c1cc(O)c2c(c1)S(=O)(=O)N=C(Nc1ccccc1Cl)N2`
1100

// returns reported IC50 for input `O=S1(=O)NC(Nc2ccccc2Br)=Nc2c(O)cc(Cl)cc21`
400

====

test_target: C-X-C chemokine receptor type 2 (Homo sapiens, UniProt P25025)
Sequence (P25025 whole entry): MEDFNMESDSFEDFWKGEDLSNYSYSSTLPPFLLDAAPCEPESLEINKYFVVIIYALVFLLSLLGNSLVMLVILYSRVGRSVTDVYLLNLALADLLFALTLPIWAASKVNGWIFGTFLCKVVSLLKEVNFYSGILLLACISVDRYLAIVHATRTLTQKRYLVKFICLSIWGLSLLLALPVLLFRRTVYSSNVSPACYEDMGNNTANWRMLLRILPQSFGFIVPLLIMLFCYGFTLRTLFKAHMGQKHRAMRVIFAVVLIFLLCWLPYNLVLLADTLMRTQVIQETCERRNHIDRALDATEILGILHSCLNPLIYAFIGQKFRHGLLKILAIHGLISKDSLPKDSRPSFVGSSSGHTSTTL
test_description: Displacement of human recombinant [125I]IL8 from CXCR2 receptor expressed in CHO cells
Type: cell-based
observable: log10(IC50) (log10 of the value in nM)
Heads up: the numbers are on a log10 scale; they represent IC50 in nM.

// returns reported log10(IC50) for input `O=[N+]([O-])c1cc(O)c2c(c1)S(=O)(=O)N=C(Nc1ccccc1Cl)N2`
1.91

// returns reported log10(IC50) for input `Cc1cc(O)c2c(c1)S(=O)(=O)N=C(Nc1ccccc1Br)N2`
2.45

// returns reported log10(IC50) for input `O=S1(=O)NC(Nc2ccccc2OC(F)(F)F)=Nc2c(O)cc(Cl)cc21`
2.97

// returns reported log10(IC50) for input `O=S1(=O)N=C(Nc2cc(F)ccc2Br)Nc2c(O)cc(Cl)cc21`
3.59

// returns reported log10(IC50) for input `CC(=O)c1ccccc1NC1=Nc2c(O)cc(Cl)cc2S(=O)(=O)N1`
3.65

// returns reported log10(IC50) for input `O=[N+]([O-])c1cc(O)c2c(c1)S(=O)(=O)N=C(Nc1ccccc1Br)N2`
1.41

// returns reported log10(IC50) for input `Cc1ccccc1NC1=NS(=O)(=O)c2cc(Cl)cc(O)c2N1`
2.59

// returns reported log10(IC50) for input `O=S1(=O)N=C(Nc2ccccc2Br)Nc2c(O)ccc(F)c21`
3.48

// returns reported log10(IC50) for input `O=S1(=O)NC(Nc2ccccc2Br)=Nc2c(O)cc(F)cc21`
2.56

// returns reported log10(IC50) for input `O=S1(=O)N=C(Nc2ccc(F)cc2Br)Nc2c(O)cc(Cl)cc21`
2.08

// returns reported log10(IC50) for input `O=S1(=O)N=C(Nc2ccccc2)Nc2c(O)cc(Cl)cc21`
3.38

// returns reported log10(IC50) for input `O=S1(=O)NC(Nc2c(F)cccc2Br)=Nc2c(O)cc(Cl)cc21`
3.20

// returns reported log10(IC50) for input `O=S1(=O)N=C(Nc2ccccc2Cl)Nc2c(O)cc(Cl)cc21`
1.96
